Data origin: paper PMC9482650

Documented pKd across a set of binders
Molecular target: T1, LNX2_2, Q8N448
T1 sequence (Q8N448 334-432, limits assumed, looked up): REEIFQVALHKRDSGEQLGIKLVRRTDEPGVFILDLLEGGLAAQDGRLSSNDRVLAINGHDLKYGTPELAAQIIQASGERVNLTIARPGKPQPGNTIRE
Experiment: holdup assay
Set-up: key: below the threshold = too weak to quantify, mostly under pKd 3.1 to 4
Settings: plain residues with an end cap or a label only (N-terminal biotin on a linker: ttds)
experimental-readout: pKd

> print(dat)
                        binder  obs.value
1  RLPKIKETTV [FRMPD4, Q14CM0]       4.47
2   EMDRRPATVV [PLCB4, Q15147]       4.93
